Data origin: ChEMBL document CHEMBL1821627

The entries below come with measured pIC50 values attached.
TESTED ON: Transcriptional activator protein LasR (Pseudomonas aeruginosa (strain ATCC 15692 / PAO1 / 1C / PRS 101 / LMG12228))
Sequence (P25084 whole entry): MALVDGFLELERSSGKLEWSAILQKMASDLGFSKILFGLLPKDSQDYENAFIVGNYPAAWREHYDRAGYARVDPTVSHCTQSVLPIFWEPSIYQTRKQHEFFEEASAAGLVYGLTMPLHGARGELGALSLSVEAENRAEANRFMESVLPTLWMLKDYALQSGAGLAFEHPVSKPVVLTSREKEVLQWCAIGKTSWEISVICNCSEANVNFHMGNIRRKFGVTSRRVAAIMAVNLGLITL
MEASUREMENT PROTOCOL: Antagonist activity at Pseudomonas aeruginosa LasR receptor expressed in Escherichia coli in presence of 7.5 nM natural auto-inducer 3-oxo-C12-HSL
Type: functional
pIC50: −log10 of the molar value.

| SMILES STRING | pIC50 |
| --- | --- |
| O=C(Cc1ccc(I)cc1)N[C@H]1CCOC1=O | 5.76 |
| CCCCCCCCCC(=O)N[C@H]1CCOC1=O | 6.60 |
| O=C(CCc1ccc(Br)cc1)N[C@H]1CCOC1=O | 6.47 |

---

MEASUREMENT PROTOCOL: Inhibition of quorum sensing Salmonella Typhimurium by beta-galactosidase transcription assay in presence of 50 uM DPD
Design: species or system Salmonella enterica subsp. enterica serovar Typhimurium
ENDPOINT NAME: IC50 (µM)

| SMILES STRING | ENDPOINT NAME | RELATIONAL OPERATOR | VALUE |
| --- | --- | --- | --- |
| [N-]=[N+]=NCCCCC(=O)C(=O)[C@@H](O)CO | IC50 | = | 20.3 |
| CCCCC(=O)C(=O)[C@@H](O)CO | IC50 | = | 5.04 |
| CCCCCCC(=O)C(=O)[C@@H](O)CO | IC50 | = | 24.9 |
| CCCC(=O)C(=O)[C@@H](O)CO | IC50 | = | 5.3 |
| O=C(CCc1ccccc1)C(=O)[C@@H](O)CO | IC50 | > | 50 |
| CCC(=O)C(=O)[C@@H](O)CO | IC50 | > | 50 |

---

System: PC-3
MEASUREMENT PROTOCOL: Growth inhibition of human PC3 cells
Type: functional, cell-based
pIC50: −log10 of the molar value.

| SMILES STRING | pIC50 |
| --- | --- |
| O=C(CCCCCCCCCCCc1ccccc1)N[C@H]1CCOC1=O | < 4.00 |

---

TESTED ON: Autoinducer 1 sensor kinase/phosphatase LuxN (Vibrio harveyi, UniProt P0C5S6)
Sequence (P0C5S6 whole entry): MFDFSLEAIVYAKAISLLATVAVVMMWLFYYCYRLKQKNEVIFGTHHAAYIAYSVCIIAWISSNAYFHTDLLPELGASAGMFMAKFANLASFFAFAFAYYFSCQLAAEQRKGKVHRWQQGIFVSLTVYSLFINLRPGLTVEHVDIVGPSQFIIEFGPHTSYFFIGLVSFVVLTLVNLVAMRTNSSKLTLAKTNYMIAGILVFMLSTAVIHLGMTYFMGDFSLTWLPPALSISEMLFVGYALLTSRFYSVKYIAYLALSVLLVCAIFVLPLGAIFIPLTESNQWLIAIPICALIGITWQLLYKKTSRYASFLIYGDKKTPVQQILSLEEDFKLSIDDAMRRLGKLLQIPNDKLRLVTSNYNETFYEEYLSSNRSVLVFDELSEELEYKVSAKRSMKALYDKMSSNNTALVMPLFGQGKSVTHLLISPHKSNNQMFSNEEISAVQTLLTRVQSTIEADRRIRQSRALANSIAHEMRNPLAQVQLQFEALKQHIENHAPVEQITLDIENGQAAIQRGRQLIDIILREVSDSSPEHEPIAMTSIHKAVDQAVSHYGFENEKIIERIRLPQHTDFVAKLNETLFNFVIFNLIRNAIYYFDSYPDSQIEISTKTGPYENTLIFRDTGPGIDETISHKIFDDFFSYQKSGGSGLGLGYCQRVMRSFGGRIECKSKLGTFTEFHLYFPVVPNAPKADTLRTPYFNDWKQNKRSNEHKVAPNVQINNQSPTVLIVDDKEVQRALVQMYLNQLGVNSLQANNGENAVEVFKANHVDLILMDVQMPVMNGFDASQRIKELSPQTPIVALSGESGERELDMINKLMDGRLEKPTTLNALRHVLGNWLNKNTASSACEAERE
MEASUREMENT PROTOCOL: Inhibition of LuxN-dependent bioluminescence in Vibrio harveyi
pIC50: −log10 of the molar value.
The entries below come with measured pIC50 values attached.

| COMPOUND | pIC50 |
| --- | --- |
| CC(=O)N1CCc2ccc(S(=O)(=O)NC(CC(C)C)C(=O)NCc3ccc(Cl)cc3)cc21 (stereo not given) | 5.57 |
| CC(C)(c1ccccc1)c1ccc(OCC(=O)NC2CCCC2)cc1 | 5.62 |
| CC(C)OC(=O)CSc1nc2ccccc2[nH]1 | 4.21 |
| COc1ccc(CNC(=O)C(NS(=O)(=O)c2ccc3nc(C)sc3c2)C(C)C)cc1 (stereo not given) | 5.54 |
| O=C(c1ccc(Cl)cc1)c1ccc(S(=O)(=O)c2ccc(Cl)cc2)cc1 | 5.59 |
